- Test Summary: physchem
- Experimental Parameters: 100 °C, water, thermodynamic from solid
Value Kind: solubility at 0.5 h (µg/mL)
Numeric only. Scale: µg/mL

IN: solubility at 0.5 h lookup needed for CC(C)(C)c1cc(C(=O)OC2O[C@H](CO)[C@@H](O)[C@H](O)[C@H]2O)cc(C(C)(C)C)c1O (stereo partly shown) [RDW031] , thanks.
OUT: 1080

----------
- Test Summary: physchem
- Experimental Parameters: 23 °C, water, thermodynamic from solid
Value Kind: solubility at 0.5 h (mg/mL)
Numeric only. Scale: mg/mL

IN: solubility at 0.5 h lookup needed for CC(C)(C)c1cc(C(=O)OC2O[C@H](CO)[C@@H](O)[C@H](O)[C@H]2O)cc(C(C)(C)C)c1O (stereo partly shown) , thanks.
OUT: 0.04

Origin of values: patent US20100016244A1
